Entry source: ChEMBL document CHEMBL1136094

target: cAMP-dependent protein kinase (PKA) (Homo sapiens, UniProt P22694+P17612+P22612); assay: Inhibitory activity against Protein kinase A (Histone); type: protein assay
assay metric: IC50

{"entry smiles": "COc1ccc2c(c1)[nH]c1c2c2c(c3c1c(C)cc1ccn(C)c13)C(=O)NC2=O", "IC50": "> 20 µM"}
{"entry smiles": "Cn1ccc2ccc3c4[nH]c5ccccc5c4c4c(c3c21)C(=O)NC4=O", "IC50": "> 2 µM"}
{"entry smiles": "Cc1ccc2c(c1)[nH]c1c3ccc4ccn(C)c4c3c3c(c21)C(=O)NC3=O", "IC50": "> 20 µM"}
{"entry smiles": "Cn1ccc2ccc3c4[nH]c5c(CCCO)cccc5c4c4c(c3c21)C(=O)NC4=O", "IC50": "> 20 µM"}
{"entry smiles": "Cn1ccc2ccc3c(c4c(c5c6ccccc6n(CCCO)c35)C(=O)NC4=O)c21", "IC50": "> 2 µM"}

Consider now this further compound.
Specify IC50 for Cn1ccc2ccc3c4[nH]c5c(CCN6CCOCC6)cccc5c4c4c(c3c21)C(=O)NC4=O and stop. > 20 µM
